Each entry below carries its reported self-cleavage.
B1: HDV Ribozyme (parent)
chain: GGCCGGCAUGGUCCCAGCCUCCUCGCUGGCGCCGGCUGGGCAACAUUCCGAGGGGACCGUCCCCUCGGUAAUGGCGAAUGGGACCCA

Variants of: B1
Assay: self-cleavage, relative activity (ratio to wild type); higher = more cleavage; co-transcriptional
I only need the number, thanks.

Before answering, review these 4 worked examples.
>>> print(df.to_string())
   sequence_change  outcome_measure  reported_measurement
0        G53C C61G    self-cleavage                 0.955
1        C64U G74A    self-cleavage                 0.535
2        G52C A83G    self-cleavage                 0.683
3        U37C C63A    self-cleavage                  1.03

Inquiry: Fill in: self-cleavage of U37C G52A is ___
Reply text: 1.25

Inquiry: Value lookup for self-cleavage; key = G1A C84U
Reply text: 0.229

Inquiry: # input variant: U23C C26A ; wanted: its self-cleavage
Reply text: 1.11

Inquiry: Which self-cleavage is listed for G2U C66G ?
Reply text: 0.0198

Inquiry: So what's the measured self-cleavage for this one? C21A C44G
Reply text: 0.0852

Inquiry: What value of self-cleavage has been recorded for this entry: A43G G53U
Reply text: 0.577

Inquiry: So what does the record say about self-cleavage for G17U G28U ?
Reply text: 0.0923

Inquiry: Data request, read-out self-cleavage, for U12C G39C
Reply text: 0

Inquiry: Which self-cleavage reading was recorded for the variant C13G C14U ?
Reply text: 0.208

Inquiry: Please report the recorded self-cleavage for G40A C66G .
Reply text: 0.655

Inquiry: What measured self-cleavage goes with G40A U79G ?
Reply text: 0.755

Inquiry: Please give the measured self-cleavage for this variant: C24G C58A
Reply text: 0.121

Inquiry: So what's the measured self-cleavage for this one? C41G C48A
Reply text: 1.12

Inquiry: What value of self-cleavage has been reported for the following variant? G2U C21G
Reply text: 0.0594

Inquiry: I'd like to know its self-cleavage. The variant in question is G1A G11A
Reply text: 0.0779

Inquiry: Reported self-cleavage, variant G39C A42U : ____
Reply text: 0.227
